Would you mind telling me the reported IC50 of each entry?

I looked up "Cc1ccccc1Sc1ccc(C=C2SC(S)=NC2=O)cc1C(F)(F)F" and its IC50 for DNA polymerase lambda (Homo sapiens) was < 10 µM

I looked up "O=C1N=C(S)SC1=Cc1ccc(SC2CCCCC2)c([N+](=O)[O-])c1" and its IC50 for DNA polymerase lambda (Homo sapiens) was < 10 µM

I looked up "Cc1ccccc1Sc1ccc(C=C2SC(S)=NC2=O)cc1F" and its IC50 for DNA polymerase lambda (Homo sapiens) was < 10 µM

I looked up "O=C1N=C(S)SC1=Cc1ccc(Sc2c(F)c(F)c(C(F)(F)F)c(F)c2F)c([N+](=O)[O-])c1" and its IC50 for DNA polymerase lambda (Homo sapiens) was < 10 µM

I looked up "Cc1ccc(Sc2ccc(C=C3SC(S)=NC3=O)cc2)cc1" and its IC50 for DNA polymerase lambda (Homo sapiens) was < 10 µM

I looked up "O=C1N=C(S)SC1=Cc1ccc(Sc2ccc(OC(F)(F)F)cc2)c([N+](=O)[O-])c1" and its IC50 for DNA polymerase lambda (Homo sapiens) was < 20 µM

I looked up "O=C1N=C(S)SC1=Cc1ccc(Sc2ccc3ccccc3c2)c([N+](=O)[O-])c1" and its IC50 for DNA polymerase lambda (Homo sapiens) was < 10 µM

I looked up "Cc1ccc(Sc2ccc(C=C3SC(S)=NC3=O)cc2C(F)(F)F)cc1" and its IC50 for DNA polymerase lambda (Homo sapiens) was < 10 µM

I looked up "Cc1ccc(Sc2ccc(C=C3SC(S)=NC3=O)cc2Cl)cc1" and its IC50 for DNA polymerase lambda (Homo sapiens) was 5.7 µM

I looked up "Cc1ccc(Sc2ccc(C=C3SC(S)=NC3=O)cc2F)cc1" and its IC50 for DNA polymerase lambda (Homo sapiens) was < 10 µM

I looked up "Cc1cccc(Sc2ccc(C=C3SC(S)=NC3=O)cc2[N+](=O)[O-])c1" and its IC50 for DNA polymerase lambda (Homo sapiens) was 6 µM

I looked up "Cc1ccc(Sc2ccc(C=C3SC(S)=NC3=O)cc2C#N)cc1" and its IC50 for DNA polymerase lambda (Homo sapiens) was < 10 µM
